Origin of values: paper PMC7567930

- test.target: Jack bean urease (Canavalia ensiformis)
- assay.procedure: Jack bean urease inhibition
- Format: biochemical
- recorded.conditions: read-out: IC50 of reference thiourea; standard inhibitor
measurement.name: IC50 (µM)
Write down the numeric answer in µM and omit the unit.

# IC50 lookup, item NC(N)=S [thiourea, reference compound]
20.9

====

- test.target: Jack bean urease (Canavalia ensiformis, UniProt P07374)
- Sequence (P07374 whole entry, looked up): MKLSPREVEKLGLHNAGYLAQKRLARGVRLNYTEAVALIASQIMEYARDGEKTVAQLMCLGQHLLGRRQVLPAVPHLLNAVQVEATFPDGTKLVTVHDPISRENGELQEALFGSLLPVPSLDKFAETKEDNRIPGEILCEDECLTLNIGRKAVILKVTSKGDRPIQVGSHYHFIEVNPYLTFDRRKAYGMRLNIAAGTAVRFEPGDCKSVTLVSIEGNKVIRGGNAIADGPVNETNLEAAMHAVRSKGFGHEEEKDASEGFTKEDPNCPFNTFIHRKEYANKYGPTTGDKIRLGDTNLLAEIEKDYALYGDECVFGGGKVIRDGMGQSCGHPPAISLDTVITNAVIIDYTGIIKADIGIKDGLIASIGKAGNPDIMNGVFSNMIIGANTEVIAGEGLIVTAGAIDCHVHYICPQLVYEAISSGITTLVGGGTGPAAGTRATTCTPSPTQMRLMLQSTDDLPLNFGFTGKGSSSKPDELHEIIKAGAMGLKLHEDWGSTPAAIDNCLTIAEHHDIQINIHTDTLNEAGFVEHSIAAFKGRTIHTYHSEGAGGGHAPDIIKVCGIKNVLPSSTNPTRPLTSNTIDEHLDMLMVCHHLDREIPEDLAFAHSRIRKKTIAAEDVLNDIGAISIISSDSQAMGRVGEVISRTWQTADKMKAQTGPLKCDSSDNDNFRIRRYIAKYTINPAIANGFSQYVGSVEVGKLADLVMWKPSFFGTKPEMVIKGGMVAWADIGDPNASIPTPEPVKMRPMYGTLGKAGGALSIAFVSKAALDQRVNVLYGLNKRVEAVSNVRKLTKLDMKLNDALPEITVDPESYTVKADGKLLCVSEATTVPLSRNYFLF
- assay.procedure: Jack bean urease inhibition
- Assay type: biochemical
- recorded.conditions: urease inhibition IC50, values in the abstract
measurement.name: pIC50
# log scale: pIC50 equals minus log10 of the concentration in mol/L

# pIC50 lookup, item CC(O)c1nc2ccccc2[nH]1 (single isomer, unassigned) [compound 3f]
4.50

Okay, and CC(O)c1nc2ccccc2[nH]1 (single isomer, unassigned) [compound 3a] ?
4.65

====

- test.target: Jack bean urease (Canavalia ensiformis, UniProt P07374)
- assay.procedure: Jack bean urease inhibition
- Format: biochemical
- recorded.conditions: IC50 ± SEM, Table 1, derivatives 3a-3f; triplicate
measurement.name: IC50 (µM)
Write down the numeric answer in µM and omit the unit.

# IC50 lookup, item CC(O)c1nc2ccccc2[nH]1 (single isomer, unassigned) [compound 3a]
22

Okay, and CC(O)c1nc2ccccc2[nH]1 (single isomer, unassigned) [compound 3f] ?
31
